Biological target: T1, T11 (Tn-MUC1) (PAPGSTAPPAHGVT(α-GalNAc)SAPDT(α-GalNAc)RPAPG-OH)
T1 peptide: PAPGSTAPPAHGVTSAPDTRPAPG
Experiment: glycopeptide array
MEASURE NAME: EC50
Entry format: amount then unit.

| BINDER | MEASURE NAME | RESULT |
| --- | --- | --- |
| 202 (antibody, V domains shown) VH: QVQLVQSGAEVKNPGASVKFSCKASGYTFINYYLQWLRQAPGQGLEWMGTINPFDGSTSYAQNFQGRVTMTRDTSSTTVYMELNSLKSEDTAVYYCARDSMIGYVLFDSWGQGTLVTVSS | EC50 | 0.142 µg/mL |
| 25 (antibody, V domains shown) VH: QVQLVESGAEVKKPGASVKVSCKASGYTFARYYVHWVRQAPGQGLEWMGLINPYGGATNYAQNFQGRVTMTRDTSTSTVYMELSSLRSEDTAVYYCARDAMGGDSYFDYWGQGTLVTVSS | EC50 | 0.129 µg/mL |
| 110 (antibody, V domains shown) VH: QVQLVQSGAEMKKPGASVKVSCKASGYTFTNYYIHWVRQAPGQGLEWMGVINPYDGSTNYAQKFQGRVTLTRDTSTTTVYMELSSLRSEDTAVYYCARDYMIGYVVFDFWGQGTLVTVSS | EC50 | 0.164 µg/mL |

Q: Field request: EC50 | item: 53 (antibody, V domains shown) VH: QVQLVQSGAEVKKPGASMTVSCKTSGYTFISYYIHWLRQAPGQGLEWLGVINPFGGATNYAQKFQGRVTMTRDTSTITVYMELSSLRSEDTAVYYCARDAMGGDSHFDFWGQGTLVTVSS
Result: 0.131 µg/mL
